Provenance of the data: patent US11026426B2

- Target Or System: UniProt:P93841
- Sequence (P93841 89-401): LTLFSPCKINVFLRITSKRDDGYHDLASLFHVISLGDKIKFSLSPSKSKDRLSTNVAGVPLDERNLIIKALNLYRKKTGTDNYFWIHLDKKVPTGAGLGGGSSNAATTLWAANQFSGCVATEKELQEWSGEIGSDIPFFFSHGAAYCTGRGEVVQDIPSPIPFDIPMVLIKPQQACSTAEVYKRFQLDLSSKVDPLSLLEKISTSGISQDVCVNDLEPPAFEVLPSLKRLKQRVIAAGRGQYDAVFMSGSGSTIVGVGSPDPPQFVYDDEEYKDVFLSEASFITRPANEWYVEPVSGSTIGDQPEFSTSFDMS
- Test Protocol: Thermal shift assay against LeIspE
- Assay type: binding
Measurement Type: LeIspE melting point change (°C)

Structure As Smiles: c1ccc2[nH]c(-c3nnc(C4CCCC4)o3)cc2c1
Measurement Type: LeIspE melting point change
Numeric Value: −2.50

Structure As Smiles: Cc1ccc(-c2nnc(-c3cc4ccccc4[nH]3)o2)cc1
Measurement Type: LeIspE melting point change
Numeric Value: −1.75

Structure As Smiles: FC(F)(F)c1ccc(-c2nnc(-c3nc4ccccc4[nH]3)o2)cc1
Measurement Type: LeIspE melting point change
Numeric Value: −3.25

Structure As Smiles: C(=C\c1nnc(-c2nc3ccccc3s2)o1)/c1ccccc1
Measurement Type: LeIspE melting point change
Numeric Value: −1.50

Structure As Smiles: O=[N+]([O-])c1cc(-c2nnc(-c3nc4ccccc4s3)o2)cc([N+](=O)[O-])c1
Measurement Type: LeIspE melting point change
Numeric Value: −1.50

Structure As Smiles: FC(F)(F)c1ccc(-c2nnc(-c3nc4ccccc4s3)o2)cc1
Measurement Type: LeIspE melting point change
Numeric Value: −1.75

Structure As Smiles: CC(C)(C)c1nnc(-c2cc3ccccc3[nH]2)o1
Measurement Type: LeIspE melting point change
Numeric Value: −2.50

Structure As Smiles: Clc1cccc(-c2nnc(-c3cc4ccccc4[nH]3)o2)c1
Measurement Type: LeIspE melting point change
Numeric Value: −1.75

Structure As Smiles: Oc1c(Br)cc(Br)cc1-c1cc2ccccc2[nH]1
Measurement Type: LeIspE melting point change
Numeric Value: 0.50

Structure As Smiles: Clc1ccc(OCc2nnc(-c3nc4ccccc4s3)o2)c(Cl)c1
Measurement Type: LeIspE melting point change
Numeric Value: −1.75

Structure As Smiles: COc1ccc(-c2nnc(-c3nc4ccccc4s3)o2)cc1
Measurement Type: LeIspE melting point change
Numeric Value: −1.25

Structure As Smiles: Cc1ccc(-c2nnc(-c3nc4ccccc4s3)o2)cc1
Measurement Type: LeIspE melting point change
Numeric Value: −1.50

Structure As Smiles: c1ccc(CCc2nnc(-c3cc4ccccc4[nH]3)o2)cc1
Measurement Type: LeIspE melting point change
Numeric Value: −2.00

Structure As Smiles: Clc1ccc(-c2nnc(-c3nc4ccccc4s3)o2)cc1
Measurement Type: LeIspE melting point change
Numeric Value: −2.00

Structure As Smiles: Clc1ccc(-c2nnc(-c3nc4ccccc4[nH]3)o2)cc1
Measurement Type: LeIspE melting point change
Numeric Value: −1.50

Structure As Smiles: CCc1nnc(-c2cc3ccccc3[nH]2)o1
Measurement Type: LeIspE melting point change
Numeric Value: −2.75

Structure As Smiles: Cc1nnc(-c2cc3ccccc3[nH]2)o1
Measurement Type: LeIspE melting point change
Numeric Value: −2.25

Structure As Smiles: c1ccc2[nH]c(-c3nnc(C4CCCCC4)o3)cc2c1
Measurement Type: LeIspE melting point change
Numeric Value: −2.00

Structure As Smiles: c1ccc(Cc2nnc(-c3cc4ccccc4[nH]3)o2)cc1
Measurement Type: LeIspE melting point change
Numeric Value: 0.00

Structure As Smiles: FC(F)(F)c1ccc(-c2nnc(-c3cc4ccccc4[nH]3)o2)cc1
Measurement Type: LeIspE melting point change
Numeric Value: −1.00

====

- Test system: lettuce seeds
- Test Protocol: Lettuce leaf assay
- Assay type: in vivo
- Set-up: key: 0 (no effect); 5(complete inhibition or bleaching)
- Condition Set: 0.3 mM; ranking 0-5
# Germination per entry

Structure As Smiles: Clc1ccc(-c2nnc(-c3nc4ccccc4s3)o2)cc1
Germination: 0
--
Structure As Smiles: c1ccc2[nH]c(-c3nnc(C4CCCCC4)o3)cc2c1
Germination: 0
--
Structure As Smiles: Clc1ccc(OCc2nnc(-c3nc4ccccc4s3)o2)c(Cl)c1
Germination: 0
--
Structure As Smiles: Cc1ccc(-c2nnc(-c3nc4ccccc4s3)o2)cc1
Germination: 1
--
Structure As Smiles: c1ccc(CCc2nnc(-c3cc4ccccc4[nH]3)o2)cc1
Germination: 0
